Recorded measurements of abundance fitness, one per entry
B1: Gamma-crystallin S, residues 96 to 176; numbered along this chain, P22914 (parent)
chain: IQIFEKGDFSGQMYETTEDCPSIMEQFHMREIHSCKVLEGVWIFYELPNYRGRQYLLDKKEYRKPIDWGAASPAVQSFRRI

- Variants of: B1
- measurement_notes: abundance fitness (aPCA) (normalised: wild type 0, dead -1); higher = more abundant; growth selection in yeast, the domain comes from the species named
- assay_setup: Homo sapiens

Example variants with recorded abundance fitness:
>>> df
                             entry_sequence  result
0  IQIFEKGDFSGQMYETTEDCPSIMEQFHMREIHSCKVLEGVWIFYELPNYRGRQYLLDKKEYRKPIDWGWASPAVQSFRRI [A70W]  -0.147
1  IQIFEKGDFSGQMYETTEDCPSIMEAFHMREIHSCKVLEGVWIFYELPNYRGRQYLLDKKEYRKPIDWGAASPAVQSFRRI [Q26A]  -0.018

Problem: Fill blank: measured abundance fitness of the variant IQIFEKGDFSGQMYETTEDCPSIMEQFHMREIHSCKVLEGVWIFYELPNYRGRQYLLDKNEYRKPIDWGAASPAVQSFRRI [K60N] is ____.
Result: 0.111

Problem: Recorded abundance fitness for IQIFEKGDFSGQMYETTEDCPSIMEQFHMREIHSCKVLEGVWIFYELSNYRGRQYLLDKKEYRKPIDWGAASPAVQSFRRI [P48S] , please?
Result: -0.1

Problem: Fill in: abundance fitness of IQIFEKGDFSGQMYETTEDCPSIMEQFHMRWIHSCKVLEGVWIFYELPNYRGRQYLLDKKEYRKPIDWGAASPAVQSFRRI [E31W] is ___
Result: 0.084

Problem: // lookup abundance fitness for IQYFEKGDFSGQMYETTEDCPSIMEQFHMREIHSCKVLEGVWIFYELPNYRGRQYLLDKKEYRKPIDWGAASPAVQSFRRI [I3Y]
Result: -0.286

Problem: # input variant: IQIFEKGDFSGQMYETTEDCPSIMEQFHMREIHSCKVLEGVWIFYELPNYRGRQYLLDKKEYRKPEDWGAASPAVQSFRRI [I66E] ; wanted: its abundance fitness
Result: 0.007

Problem: May I ask what abundance fitness has been recorded for IQIFEKGDFAGQMYETTEDCPSIMEQFHMREIHSCKVLEGVWIFYELPNYRGRQYLLDKKEYRKPIDWGAASPAVQSFRRI [S10A] ?
Result: -0.039
